Form field: pIC50 (one value per entry).
molecular target: USP1, construct USP1 (1-785, GG670, 671AA)/UAF1 (1-677)-Flag (Homo sapiens, UniProt O94782, G670A/G671A); construct: USP1, construct USP1 (1-785, GG670, 671AA)/UAF1 (1-677)-Flag; Viva; test: Ubiquitin-Rhodamine 110 assay for USP1 activity; settings: enzyme 25 pM, Ub-Rh110 25 nM, 30 minutes preincubation, 8- or 10-point dilution
Sequence (O94782 whole entry G670A/G671A): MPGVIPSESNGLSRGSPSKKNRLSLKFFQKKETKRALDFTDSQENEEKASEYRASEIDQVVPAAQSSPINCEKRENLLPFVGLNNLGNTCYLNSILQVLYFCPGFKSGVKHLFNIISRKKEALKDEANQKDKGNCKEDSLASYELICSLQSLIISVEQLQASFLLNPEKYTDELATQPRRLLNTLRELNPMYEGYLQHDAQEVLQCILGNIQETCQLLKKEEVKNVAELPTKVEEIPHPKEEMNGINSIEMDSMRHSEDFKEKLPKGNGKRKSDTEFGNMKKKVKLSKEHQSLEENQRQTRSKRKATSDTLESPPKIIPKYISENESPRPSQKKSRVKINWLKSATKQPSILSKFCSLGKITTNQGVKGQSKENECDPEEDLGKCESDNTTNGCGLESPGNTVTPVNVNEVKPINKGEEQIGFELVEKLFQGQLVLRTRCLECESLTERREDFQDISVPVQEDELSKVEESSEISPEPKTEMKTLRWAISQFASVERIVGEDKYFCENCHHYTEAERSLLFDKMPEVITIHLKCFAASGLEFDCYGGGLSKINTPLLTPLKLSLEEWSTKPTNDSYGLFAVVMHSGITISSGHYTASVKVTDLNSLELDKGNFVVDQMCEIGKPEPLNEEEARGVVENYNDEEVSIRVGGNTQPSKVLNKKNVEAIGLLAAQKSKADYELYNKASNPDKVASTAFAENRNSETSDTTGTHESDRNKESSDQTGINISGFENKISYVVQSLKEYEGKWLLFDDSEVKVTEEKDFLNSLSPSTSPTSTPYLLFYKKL
Sequence (Q8TAF3 whole entry partner): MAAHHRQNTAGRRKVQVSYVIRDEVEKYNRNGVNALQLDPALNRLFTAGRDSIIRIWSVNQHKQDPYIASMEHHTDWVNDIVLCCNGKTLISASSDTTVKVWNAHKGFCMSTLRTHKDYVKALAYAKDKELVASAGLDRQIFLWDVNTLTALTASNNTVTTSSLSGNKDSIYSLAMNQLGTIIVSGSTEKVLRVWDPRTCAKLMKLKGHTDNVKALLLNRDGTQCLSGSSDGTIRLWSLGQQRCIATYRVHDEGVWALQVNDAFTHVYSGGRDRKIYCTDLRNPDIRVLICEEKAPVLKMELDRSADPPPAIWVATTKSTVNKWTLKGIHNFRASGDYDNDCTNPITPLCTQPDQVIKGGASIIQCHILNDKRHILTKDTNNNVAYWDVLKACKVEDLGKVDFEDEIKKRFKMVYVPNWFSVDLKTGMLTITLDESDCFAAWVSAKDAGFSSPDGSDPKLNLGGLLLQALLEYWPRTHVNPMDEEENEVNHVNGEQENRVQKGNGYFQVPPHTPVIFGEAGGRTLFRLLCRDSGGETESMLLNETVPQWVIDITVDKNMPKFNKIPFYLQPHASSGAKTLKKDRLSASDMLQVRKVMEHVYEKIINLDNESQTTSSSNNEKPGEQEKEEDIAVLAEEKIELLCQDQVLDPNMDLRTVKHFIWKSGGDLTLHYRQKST
pIC50: −log10 of the molar value.

[Q] Note down pIC50 recorded for CC(C)c1ncccc1-c1ncc2c(n1)N(Cc1ccc(-c3nc(C(F)(F)F)cn3C3COC3)cc1)C(=O)C2
[A] 6.00 to 7.00

[Q] Provide measured pIC50 value, entry: CC(C)c1ccccc1-c1ncc2oc(=O)n(Cc3ccc(-c4nc(C(F)(F)F)cn4C)cc3)c2n1
[A] ≥ 8.00

[Q] Supply reported pIC50 belonging to this molecule: CC(C)c1ncccc1-c1ncc2c(n1)N(Cc1ccc(-c3nc(C(F)(F)F)cn3C)cc1)C(=O)CO2
[A] 7.00 to 8.00

[Q] Quick one: give measured pIC50 for CC(C)c1ncccc1-c1ncc2c(n1)N(Cc1ccc(-c3nc(C(F)(F)F)cn3C)cc1)C(=O)OC2
[A] 7.00 to 8.00

[Q] Identify measured pIC50 corresponding to CC(C)c1ccccc1-c1ncc2sc(=O)n(Cc3ccc(-c4nc(C(F)(F)F)cn4C)cc3)c2n1
[A] ≥ 8.00

[Q] Give recorded pIC50. CC(C)c1ncccc1-c1ncc2ccn(Cc3ccc(-c4nc(C(F)(F)F)cn4C)cc3)c2n1
[A] ≥ 8.00
